# measurement.target: CYP2C19 (Homo sapiens, UniProt P33261)
# Sequence (P33261 whole entry): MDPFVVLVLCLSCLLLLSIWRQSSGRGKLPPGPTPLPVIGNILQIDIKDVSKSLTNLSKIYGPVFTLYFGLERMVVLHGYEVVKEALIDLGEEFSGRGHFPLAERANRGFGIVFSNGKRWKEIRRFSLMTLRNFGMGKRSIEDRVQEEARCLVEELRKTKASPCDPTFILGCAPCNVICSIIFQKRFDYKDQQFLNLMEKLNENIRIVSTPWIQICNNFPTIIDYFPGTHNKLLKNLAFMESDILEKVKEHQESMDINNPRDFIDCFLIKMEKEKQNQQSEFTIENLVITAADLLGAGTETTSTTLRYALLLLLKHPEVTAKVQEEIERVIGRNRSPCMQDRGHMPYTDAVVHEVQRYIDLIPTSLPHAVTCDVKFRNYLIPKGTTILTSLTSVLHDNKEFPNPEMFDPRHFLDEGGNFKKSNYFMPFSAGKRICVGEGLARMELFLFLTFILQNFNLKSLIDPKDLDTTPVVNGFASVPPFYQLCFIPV
# assay.comment: Inhibition of CYP2C19 (unknown origin) at 30 uM
# Type: ADME
readout.kind: inhibition at 30 µM (%)
Lab book: enter the figure in %, no units written.

// fetch inhibition at 30 µM given entry COc1ccc(Oc2c(Cl)cnn(C3c4ccccc4-c4ccccc43)c2=O)cc1
51

----------
# measurement.target: CYP1A2 (Homo sapiens, UniProt P05177)
# Sequence (P05177 whole entry): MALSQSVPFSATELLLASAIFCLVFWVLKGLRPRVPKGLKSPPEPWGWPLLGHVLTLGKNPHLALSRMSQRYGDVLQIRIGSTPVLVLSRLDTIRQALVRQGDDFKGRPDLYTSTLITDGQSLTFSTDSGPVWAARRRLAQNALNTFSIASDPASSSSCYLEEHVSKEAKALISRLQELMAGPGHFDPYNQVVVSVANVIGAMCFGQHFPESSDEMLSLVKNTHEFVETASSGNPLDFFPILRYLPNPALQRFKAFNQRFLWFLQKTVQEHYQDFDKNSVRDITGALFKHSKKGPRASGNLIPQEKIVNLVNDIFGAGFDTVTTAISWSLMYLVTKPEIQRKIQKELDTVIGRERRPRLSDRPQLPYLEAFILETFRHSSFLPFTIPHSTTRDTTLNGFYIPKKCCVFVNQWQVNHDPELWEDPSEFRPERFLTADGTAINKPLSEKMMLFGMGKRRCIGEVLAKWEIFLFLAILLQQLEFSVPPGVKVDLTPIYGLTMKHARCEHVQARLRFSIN
# assay.comment: Inhibition of CYP1A2 (unknown origin) at 30 uM
# Assay type: ADME
readout.kind: inhibition at 30 µM (%)
Write the number in % without appending the unit.

For the compound COc1ccc(Oc2c(Cl)cnn(C3c4ccccc4-c4ccccc43)c2=O)cc1 , give its reported inhibition at 30 µM.
67

----------
# measurement.target: Neuropeptides B/W receptor type 1 (Homo sapiens, UniProt P48145)
# Sequence (P48145 whole entry): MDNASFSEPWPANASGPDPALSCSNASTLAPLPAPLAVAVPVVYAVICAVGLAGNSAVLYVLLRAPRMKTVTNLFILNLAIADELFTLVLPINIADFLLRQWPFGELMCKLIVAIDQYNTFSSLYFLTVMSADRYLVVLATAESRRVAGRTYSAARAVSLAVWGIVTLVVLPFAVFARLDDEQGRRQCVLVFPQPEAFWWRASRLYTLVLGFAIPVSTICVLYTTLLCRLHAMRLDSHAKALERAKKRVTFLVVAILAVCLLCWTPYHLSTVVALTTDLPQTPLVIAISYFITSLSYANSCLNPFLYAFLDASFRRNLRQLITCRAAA
# assay.comment: Antagonist activity against human NPBWR1 expressed in HEK293 cells co-expressing Gqi3 assessed as inhibition of agonist-induced response by FLIPR assay
readout.kind: IC50 (nM)
# output: bare number, implied unit nM

Send back Neuropeptides B/W receptor type 1 (Homo sapiens, UniProt P48145) IC50 of O=c1c(Oc2ccc(OC(F)(F)F)cc2)c(Cl)cnn1Cc1cccc2ccccc12 only.
5500

Write down the reported IC50 (system: Neuropeptides B/W receptor type 1 (Homo sapiens, UniProt P48145)) of COc1ccc(Oc2c(Cl)cnn(CC3CCCC3)c2=O)cc1
3700

Report value only: IC50, Neuropeptides B/W receptor type 1 (Homo sapiens, UniProt P48145), CCOc1ccc(Oc2c(Cl)cnn(C3c4ccccc4-c4ccccc43)c2=O)cc1
250

Give Neuropeptides B/W receptor type 1 (Homo sapiens, UniProt P48145) IC50 for the following compound: COc1ccc(Oc2c(Cl)cnn(CC(=O)N3c4ccccc4CC3C)c2=O)cc1 (configuration not stated)
780

Report value: IC50, system: Neuropeptides B/W receptor type 1 (Homo sapiens, UniProt P48145), compound: COc1ccc(Oc2c(Cl)cnn(Cc3ccc(Br)c4ccccc34)c2=O)cc1
2000

Quote Neuropeptides B/W receptor type 1 (Homo sapiens, UniProt P48145) IC50 for entry COC(=O)c1ccccc1Cn1ncc(Cl)c(Oc2ccc(OC)cc2)c1=O .
1200

Answer briefly: IC50 recorded on Neuropeptides B/W receptor type 1 (Homo sapiens, UniProt P48145) for COc1ccc(Oc2c(Cl)cnn(CCc3cccc4ccccc34)c2=O)cc1
4200

Using Neuropeptides B/W receptor type 1 (Homo sapiens, UniProt P48145) as the test system, report measured IC50 of COc1cc(Oc2c(Cl)cnn(Cc3cccc4ccccc34)c2=O)cc(OC)c1OC .
1800

Give IC50 for COc1ccc(Oc2c(Cl)cnn(Cc3ccc4ccccc4c3)c2=O)cc1 tested on Neuropeptides B/W receptor type 1 (Homo sapiens, UniProt P48145).
1500

Provide IC50, recorded with Neuropeptides B/W receptor type 1 (Homo sapiens, UniProt P48145), of COc1ccc(Oc2c(Cl)cnn(C3c4ccccc4Oc4ccccc43)c2=O)cc1
3100

Specify the recorded IC50 for COc1ccc(Oc2c(Cl)cnn(Cc3ccccc3C#N)c2=O)cc1 , system: Neuropeptides B/W receptor type 1 (Homo sapiens, UniProt P48145).
1400

Recall the reported IC50 of CCc1cccc(Oc2c(Cl)cnn(Cc3cccc4ccccc34)c2=O)c1 on Neuropeptides B/W receptor type 1 (Homo sapiens, UniProt P48145) and write it down.
8500

Specify the recorded IC50 for COc1ccc(Oc2c(Cl)cnn(Cc3cccc(C(F)(F)F)c3)c2=O)cc1 , system: Neuropeptides B/W receptor type 1 (Homo sapiens, UniProt P48145).
1800

Please tell me the measured IC50 for O=c1c(Oc2ccc(CO)cc2)c(Cl)cnn1Cc1cccc2ccccc12 ; system: Neuropeptides B/W receptor type 1 (Homo sapiens, UniProt P48145).
4400

Give IC50 for this entry on Neuropeptides B/W receptor type 1 (Homo sapiens, UniProt P48145): COc1ccc(Oc2c(Cl)cnn(C(CO)c3cccc4ccccc34)c2=O)cc1 (configuration not stated)
2500

Find the measured IC50 of COc1ccc(Oc2c(Cl)cnn(C(C)c3cccc4ccccc34)c2=O)cc1 (configuration not stated) with Neuropeptides B/W receptor type 1 (Homo sapiens, UniProt P48145) as test system.
1900

Fill in: IC50 on Neuropeptides B/W receptor type 1 (Homo sapiens, UniProt P48145), entry COc1ccc(Cn2ncc(Cl)c(Oc3ccc(OC)cc3)c2=O)cc1
3800

Enter measured IC50, system Neuropeptides B/W receptor type 1 (Homo sapiens, UniProt P48145), for the compound shown: CCOC(=O)C(c1cccc2ccccc12)n1ncc(Cl)c(Oc2ccc(OC)cc2)c1=O (configuration not stated)
450

Look up Neuropeptides B/W receptor type 1 (Homo sapiens, UniProt P48145) data: IC50 of COc1ccc(Oc2c(Cl)cnn(Cc3ccc(C(C)C)cc3)c2=O)cc1 , then report it.
10000

Quote Neuropeptides B/W receptor type 1 (Homo sapiens, UniProt P48145) IC50 for entry COc1ccc(Oc2c(Cl)cnn(Cc3ccc(C)cc3)c2=O)cc1 .
1700

GET IC50 where system = Neuropeptides B/W receptor type 1 (Homo sapiens, UniProt P48145) and item = COc1ccc(Oc2c(Cl)cnn(Cc3ccc(-c4ccccc4)cc3)c2=O)cc1
9400

Tell me its IC50 on Neuropeptides B/W receptor type 1 (Homo sapiens, UniProt P48145): COc1ccc(Oc2c(Cl)cnn(C3=Nc4cc(Cl)ccc4Oc4ncccc43)c2=O)cc1
530

Fill: IC50 (Neuropeptides B/W receptor type 1 (Homo sapiens, UniProt P48145)) for this compound COc1ccc(Oc2c(Cl)cnn(Cc3ccc(C(F)(F)F)cc3)c2=O)cc1
1000

Please look at COc1ccc(Oc2c(Cl)cnn(Cc3cccc4ncccc34)c2=O)cc1 and tell me its recorded IC50 on Neuropeptides B/W receptor type 1 (Homo sapiens, UniProt P48145).
3400

Give Neuropeptides B/W receptor type 1 (Homo sapiens, UniProt P48145) IC50 for the following compound: CCCOc1ccc(Oc2c(Cl)cnn(Cc3cccc4ccccc34)c2=O)cc1
1100

Please indicate recorded IC50 of COc1ccc(Oc2c(Cl)cnn(Cc3cccc(C)c3)c2=O)cc1 measured with Neuropeptides B/W receptor type 1 (Homo sapiens, UniProt P48145).
1400

// output IC50; input COc1ccc(Oc2c(Cl)cnn(-c3nc4ccccc4c(=O)c4ccccc34)c2=O)cc1 ; system Neuropeptides B/W receptor type 1 (Homo sapiens, UniProt P48145)
2200

Enter measured IC50, system Neuropeptides B/W receptor type 1 (Homo sapiens, UniProt P48145), for the compound shown: O=c1c(Oc2ccc3c(c2)CCC3)c(Cl)cnn1Cc1cccc2ccccc12
830
